What AC50 was measured for each of the following?
Experimental system: POLγA:R309C (Homo sapiens, UniProt P54098, R309C)
Assay notes: DNA polymerization assay, POLγA:R309C mutant
Type: biochemical
Condition description: stimulation of polymerase activity, primed M13mp18 ssDNA, 37° C. 2 hours
Express the result in µM but write the number alone.

Value wanted: AC50 (POLγA:R309C (Homo sapiens, UniProt P54098, R309C)) of entry Cc1cc(-c2cccc(NS(=O)(=O)c3cc(C)c(Cl)cc3C)c2)n[nH]1 12

Record Cc1cc(S(=O)(=O)Nc2cccc(-c3ncc(CN(C)C)s3)c2)c(C)cc1Cl : what is its AC50 with POLγA:R309C (Homo sapiens, UniProt P54098, R309C)? 6

Which measured AC50 belongs to Cc1cc(S(=O)(=O)Nc2cccc(-c3cc(C4CC4)[nH]n3)c2)c(C)cc1Cl , tested on POLγA:R309C (Homo sapiens, UniProt P54098, R309C)? 1

* * *

Task for the reader: assign each of the following compounds its reported AC50.
Experimental system: POLγA:A467T (Homo sapiens, UniProt P54098, A467T)
Sequence (P54098 1-1239 A467T): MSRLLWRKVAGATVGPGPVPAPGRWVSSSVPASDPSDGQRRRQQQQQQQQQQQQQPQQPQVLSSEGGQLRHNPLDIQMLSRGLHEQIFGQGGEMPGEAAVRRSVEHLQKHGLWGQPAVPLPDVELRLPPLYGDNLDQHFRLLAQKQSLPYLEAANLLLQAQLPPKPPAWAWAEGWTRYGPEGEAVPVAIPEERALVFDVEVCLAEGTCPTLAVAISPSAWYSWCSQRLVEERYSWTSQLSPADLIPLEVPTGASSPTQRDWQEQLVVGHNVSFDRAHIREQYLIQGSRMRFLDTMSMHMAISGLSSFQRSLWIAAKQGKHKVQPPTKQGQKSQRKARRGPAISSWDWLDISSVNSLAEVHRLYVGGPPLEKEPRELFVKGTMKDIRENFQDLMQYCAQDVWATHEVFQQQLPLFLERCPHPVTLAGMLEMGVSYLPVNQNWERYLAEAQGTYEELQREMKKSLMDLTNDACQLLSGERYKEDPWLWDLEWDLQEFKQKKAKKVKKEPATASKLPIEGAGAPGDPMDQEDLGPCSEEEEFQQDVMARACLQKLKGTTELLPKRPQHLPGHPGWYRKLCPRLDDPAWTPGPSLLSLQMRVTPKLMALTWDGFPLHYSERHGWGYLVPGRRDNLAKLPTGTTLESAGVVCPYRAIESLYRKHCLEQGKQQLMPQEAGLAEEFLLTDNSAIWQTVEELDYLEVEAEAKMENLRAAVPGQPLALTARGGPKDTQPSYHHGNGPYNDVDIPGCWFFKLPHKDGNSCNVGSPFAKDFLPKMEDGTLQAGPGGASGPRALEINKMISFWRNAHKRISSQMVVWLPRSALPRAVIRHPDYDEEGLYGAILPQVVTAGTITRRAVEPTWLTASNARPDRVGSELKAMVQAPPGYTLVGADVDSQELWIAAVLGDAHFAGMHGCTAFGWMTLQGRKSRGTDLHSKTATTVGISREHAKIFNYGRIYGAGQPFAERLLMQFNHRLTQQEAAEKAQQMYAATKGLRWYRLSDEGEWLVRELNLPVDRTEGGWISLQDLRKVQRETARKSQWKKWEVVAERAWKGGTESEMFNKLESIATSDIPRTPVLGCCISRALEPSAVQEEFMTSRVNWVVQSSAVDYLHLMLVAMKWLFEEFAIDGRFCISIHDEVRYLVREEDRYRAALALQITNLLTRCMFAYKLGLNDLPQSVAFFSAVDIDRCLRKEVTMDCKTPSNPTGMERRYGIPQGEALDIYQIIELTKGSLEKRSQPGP
Sequence (Q9UHN1 1-485 partner): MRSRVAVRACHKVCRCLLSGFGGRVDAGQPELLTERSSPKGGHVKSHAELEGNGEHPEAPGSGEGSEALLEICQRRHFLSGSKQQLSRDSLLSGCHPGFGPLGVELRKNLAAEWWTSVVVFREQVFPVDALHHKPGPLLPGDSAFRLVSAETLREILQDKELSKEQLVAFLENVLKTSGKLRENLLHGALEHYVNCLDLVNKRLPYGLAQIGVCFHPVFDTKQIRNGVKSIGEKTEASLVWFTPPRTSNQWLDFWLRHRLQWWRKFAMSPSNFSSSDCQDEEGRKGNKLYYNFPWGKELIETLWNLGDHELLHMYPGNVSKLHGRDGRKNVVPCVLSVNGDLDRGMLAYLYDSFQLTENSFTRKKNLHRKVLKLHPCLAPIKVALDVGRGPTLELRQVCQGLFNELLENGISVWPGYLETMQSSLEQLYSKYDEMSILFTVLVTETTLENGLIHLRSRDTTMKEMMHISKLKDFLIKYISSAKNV
Assay notes: DNA polymerization assay, POLγA:A467T mutant
Assay type: biochemical
Condition description: stimulation of polymerase activity, primed M13mp18 ssDNA, 37° C. 2 hours; read-out: A467T AC50

Consider the compound Cc1cc2c(NS(=O)(=O)c3cc(C)c(Cl)cc3C)cccc2[nH]1 and give its measured AC50. > 100 µM

I'd like to know its AC50. The compound in question is Cc1c(Cl)cccc1S(=O)(=O)Nc1csc(-c2ccccc2)n1 > 100 µM

Any idea what its AC50 is? The compound is Cc1cc(S(=O)(=O)Nc2cccc(C(=O)N3CCCOC(C)(C)C3)c2)c(C)cc1Cl > 100 µM

Dear colleague, I am looking for the recorded AC50 of the following compound: Cc1cc(S(=O)(=O)Nc2cccc(C(=O)N3C[C@H](C)[C@@H](N)C3)c2)c(C)cc1Cl > 100 µM

Name the recorded AC50 for Cc1cc(S(=O)(=O)Nc2cccc(-c3ncco3)c2)c(C)cc1Cl . 6 µM

Data request, read-out AC50, for Cc1cc(NS(=O)(=O)c2cc(C)ccc2C)cc(C(=O)N2CCCC[C@H]2C)c1 > 100 µM

# get_value(readout='AC50', item= Cc1cc(S(=O)(=O)Nc2cccc(-c3ncc(C(N)=O)s3)c2)c(C)cc1Cl ) > 100 µM

# AC50 lookup, item Cc1cc(S(=O)(=O)N[C@H]2CCCN(C(=O)[C@@H]3CCCN3C)C2)c(C)cc1Cl > 100 µM

Suppose we examine the compound O=S(=O)(Nc1cccc(-c2nccs2)c1)c1ccc(Cl)cc1 ; what AC50 value has been reported? > 100 µM

What does the record list as AC50 for Cc1cc(S(=O)(=O)N(C)c2cccc(-c3nccs3)c2)c(C)cc1Cl ? > 100 µM

May I ask what AC50 has been recorded for Cc1cc(S(=O)(=O)Nc2csc(C(=O)N(C)CC(N)=O)n2)c(C)cc1Cl ? > 10 µM

Which AC50 is listed for Cc1cc(S(=O)(=O)Nc2cccc(C(=O)N[C@H](C)CO)c2)c(C)cc1Cl ? > 100 µM

// AC50 lookup, key: Cc1cc2cc(NS(=O)(=O)c3cc(C)c(Cl)cc3C)ccc2[nH]1 33 µM

# lookup: AC50 of Cc1cnc(-c2ccc(Cl)c(NS(=O)(=O)c3cc(C)c(Cl)cc3C)c2)s1 > 100 µM

Name the recorded AC50 for O=S(=O)(Nc1csc(-c2ccccc2)n1)c1ccc(F)cc1F . > 100 µM

Recorded AC50 for Cc1cc(S(=O)(=O)Nc2nc(-c3ccccc3)ns2)c(C)cc1Cl , please? > 100 µM

I have this compound here, Cc1cc(S(=O)(=O)Nc2cccc(C(=O)N3CCC[C@@H]3C)c2)c(C)cc1Cl , and I need its recorded AC50. > 100 µM

If you can, please state the reported AC50 value of Cc1cc(S(=O)(=O)Nc2cccc(C(=O)N(C)C)c2)c(C)cc1Cl . 45 µM
